Hello, the source for this data is ChEMBL document CHEMBL1126679, in case you need it.

Please respond with reported Intrinsic activity for every item in the list.
study_system: D(2) dopamine receptor (Homo sapiens, UniProt P14416)
Sequence (P14416 whole entry): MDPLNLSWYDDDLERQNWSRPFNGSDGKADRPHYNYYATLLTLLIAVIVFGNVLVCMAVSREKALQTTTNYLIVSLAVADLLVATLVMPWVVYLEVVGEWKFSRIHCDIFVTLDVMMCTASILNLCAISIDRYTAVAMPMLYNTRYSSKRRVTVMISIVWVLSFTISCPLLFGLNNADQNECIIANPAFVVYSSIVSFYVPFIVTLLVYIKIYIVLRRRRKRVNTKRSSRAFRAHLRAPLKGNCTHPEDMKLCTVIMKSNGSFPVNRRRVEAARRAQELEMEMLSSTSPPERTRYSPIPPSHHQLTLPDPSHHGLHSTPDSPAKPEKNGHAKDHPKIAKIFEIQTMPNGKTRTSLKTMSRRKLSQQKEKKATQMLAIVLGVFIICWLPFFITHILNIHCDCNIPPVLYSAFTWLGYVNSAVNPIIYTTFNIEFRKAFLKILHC
test_name: Intrinsic activity against dopamine D 2 receptor
Format: functional
reported_conditions: Cricetulus griseus
One number for each entry, in %.

# count of solved cases: 4
molecule	Intrinsic activity, %
CCCN(CCC)[C@@H]1Cc2cccc3ccc(=O)n(c23)C1 (racemic)	79
C=CCN1CC[C@@H]2c3cccc(O)c3CC[C@@H]21	47
C=CCN1CC[C@H]2c3cccc(O)c3CC[C@H]21	22
C=CCN1CCC2c3c(cccc3OC)CCC21 (racemic)	0

# return Intrinsic activity for each item in the list
1. C=CCN1CCC2c3cccc(O)c3CCC21 (racemic; 15c)
2. C=CCN1CC[C@H]2c3cccc(OC)c3CC[C@H]21

[reply]
[29, 0]

# return Intrinsic activity for each item in the list
1. C=CCN1CCC2c3cccc(O)c3CCC21 (racemic; 14c)
2. CCCN[C@@H]1CCc2c(OC)cccc2[C@@H]1C

[reply]
1. 44
2. 3

# return Intrinsic activity for each item in the list
1. C=CCN1CC[C@H]2Cc3c(O)cccc3CC21 (single isomer, unassigned)
2. C=CCN1CC[C@@H]2Cc3c(O)cccc3C[C@H]21
3. CCCN1CC[C@H]2Cc3c(O)cccc3CC21 (single isomer, unassigned)
4. C=CCN1CC[C@H]2c3c(cccc3OC)CC[C@H]21 (single isomer, unassigned)
5. CCCN1C[C@H](CSC)C[C@@H]2c3cccc4[nH]cc(c34)C[C@H]21

[reply]
21
106
18
17
66

###

study_system: D(2) dopamine receptor (Homo sapiens)
test_name: Intrinsic activity against dopamine D 2 receptor
Format: functional
reported_conditions: Cricetulus griseus
In plain terms, low Intrinsic activity, meaning strictly below 20%, gives t, and everything else gives f.

compound	group
Cc1[nH]c2cccc3c2c1C[C@@H]1C3C[C@H](NC(=O)C(C)(C)C)CN1C (some centres not stated)	t
CCCN1CCC2Cc3c(cccc3OC)C[C@H]21 (mixture of isomers)	f
C=CCN1CCC2c3cccc(OC)c3CC[C@H]21 (mixture of isomers)	t
CCCN1[C@@H](C)C[C@@H]2Cc3cccc(OC)c3C[C@@H]21	f
C=CCN1CC[C@H]2c3c(cccc3OC)CC[C@H]21	f
C=CCN1CCC2Cc3c(O)cccc3C[C@H]21 (mixture of isomers)	f
CCCN(CCC)[C@@H]1Cc2cccc3nc(S)n(c23)C1 (racemic)	f
C=CCN1CCC2c3cccc(OC)c3CC[C@@H]21 (mixture of isomers)	t

# input for lookup
[ask] Does this compound meet the criterion Intrinsic activity < 20%? CCCN1CC[C@@H]2Cc3c(O)cccc3C[C@H]21
[reply] f

###

study_system: D(2) dopamine receptor (Rattus norvegicus, UniProt P61169)
Sequence (P61169 whole entry): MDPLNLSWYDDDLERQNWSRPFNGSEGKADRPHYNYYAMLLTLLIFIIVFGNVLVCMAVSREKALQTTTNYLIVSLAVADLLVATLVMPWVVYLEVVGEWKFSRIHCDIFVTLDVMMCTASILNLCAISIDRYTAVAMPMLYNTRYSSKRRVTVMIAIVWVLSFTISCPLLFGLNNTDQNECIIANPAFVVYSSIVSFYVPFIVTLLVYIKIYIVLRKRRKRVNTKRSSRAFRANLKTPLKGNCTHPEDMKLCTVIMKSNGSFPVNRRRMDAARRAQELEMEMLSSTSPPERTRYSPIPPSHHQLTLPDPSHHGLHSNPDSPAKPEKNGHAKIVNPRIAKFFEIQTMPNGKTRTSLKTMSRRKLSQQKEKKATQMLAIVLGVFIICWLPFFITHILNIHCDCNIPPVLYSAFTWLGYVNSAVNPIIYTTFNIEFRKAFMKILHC
test_name: Compound was tested for antagonistic activity against D2 receptor from rat striatum, used [3H]raclopride as radioligand
experimental_readout: Ki

compound	Ki
CCCN1CC[C@H]2c3c(cccc3OC)CC[C@H]21 (racemic)	> 1000 nM
CCCN1CCC2c3cccc(O)c3CCC21 (racemic; 15a)	> 1000 nM
C=CCN1CC[C@@H]2c3cccc(OC)c3CC[C@@H]21	> 1000 nM
CCCN1CC[C@H]2c3c(cccc3OC)CC[C@H]21 (single isomer, unassigned)	> 1000 nM

# return Ki for each item in the list
1. CCCN(CCC)[C@@H]1Cc2cccc3c2N(C1)C(=O)NC3 (racemic)
2. C=CCN1CCC2Cc3c(cccc3OC)C[C@H]21 (mixture of isomers)
3. CCCN1CC[C@H]2Cc3c(O)cccc3CC21 (single isomer, unassigned)
4. CN1C[C@@H](NC(=O)C(C)(C)C)CC2c3cccc4[nH]c(Cl)c(c34)C[C@H]21 (stereo not given in full)
5. CCCN1CCC2Cc3c(O)cccc3C[C@H]21 (mixture of isomers)
6. CCCN(CCC)[C@@H]1Cc2cccc3[nH]c(=O)n(c23)C1

[reply]
> 1000 nM
> 1000 nM
> 630 nM
0.47 nM
17 nM
5.4 nM

###

study_system: D(2) dopamine receptor (Homo sapiens)
test_name: Compound was tested for agonistic activity against D2 receptor from cloned CHO cells, used [3H]U-86170 as radioligand
experimental_readout: Ki

compound	experimental_readout	result
C=CCN1CC[C@H]2c3c(cccc3OC)CC[C@H]21	Ki	6.7 nM
C=CCN1CCC2c3c(cccc3OC)CCC21 (racemic)	Ki	8.5 nM
C=CCN1CC[C@H]2c3c(cccc3OC)CC[C@H]21 (racemic)	Ki	7 nM
C=CCN1CC[C@H]2c3c(O)cccc3CC[C@H]21 (racemic)	Ki	153 nM
CCCN1CCC2Cc3c(cccc3OC)C[C@H]21 (mixture of isomers)	Ki	100 nM
CCCN(CCC)[C@@H]1CCc2c(OC)cccc2[C@@H]1C	Ki	13 nM

# return Ki for each item in the list
1. C=CCN1CC[C@H]2c3cccc(O)c3CC[C@H]21
2. CCCN1CCC2Cc3c(O)cccc3CC21 (racemic)
3. CCCN1CC[C@H]2c3c(O)cccc3CC[C@H]21 (single isomer, unassigned)
4. C=CCN1CCC2c3cccc(O)c3CCC21 (racemic; 14c)
5. Cc1[nH]c2cccc3c2c1C[C@@H]1C3C[C@H](NC(=O)C(C)(C)C)CN1C (some centres not stated)
6. CCCN1CCC2c3cccc(O)c3CCC21 (racemic; 14a)
7. CCCN[C@@H]1CCc2c(OC)cccc2[C@@H]1C
8. C=CCN1CCC2c3cccc(O)c3CCC21 (racemic; 15c)

[reply]
1: 108 nM; 2: 11 nM; 3: < 50 nM; 4: 4.1 nM; 5: 3.1 nM; 6: 93 nM; 7: 14 nM; 8: 75 nM

# return Ki for each item in the list
1. CCCN(CCC)[C@@H]1Cc2cccc3[nH]c(=O)n(c23)C1
2. CCCN1CC[C@H]2Cc3c(O)cccc3CC21 (single isomer, unassigned)

[reply]
1. 1.7 nM
2. 917 nM

# Oc1cccc2c1CC[C@@H]1NCCC[C@@H]21 (racemic) with D(2) dopamine receptor (Homo sapiens): Ki is 11 nM

###

Please respond with reported Intrinsic activity for every item in the list.
study_system: D(2) dopamine receptor (Homo sapiens, UniProt P14416)
test_name: Intrinsic activity against dopamine D 2 receptor
Format: functional
reported_conditions: Cricetulus griseus
Give bare numbers, in %.

# count of solved cases: 5
compound	study_system	experimental_readout	number
CCCN1CC[C@H]2c3c(cccc3OC)CC[C@H]21	D(2) dopamine receptor (Homo sapiens, UniProt P14416)	Intrinsic activity	37
CCCN1CCC2c3cccc(O)c3CCC21 (racemic; 14a)	D(2) dopamine receptor (Homo sapiens, UniProt P14416)	Intrinsic activity	28
CCCN1CC[C@@H]2Cc3c(cccc3OC)C[C@H]21	D(2) dopamine receptor (Homo sapiens, UniProt P14416)	Intrinsic activity	37
CCCN1CCC2Cc3c(O)cccc3C[C@H]21 (mixture of isomers)	D(2) dopamine receptor (Homo sapiens, UniProt P14416)	Intrinsic activity	79
C=CCN1CCC2c3c(O)cccc3CCC21 (racemic)	D(2) dopamine receptor (Homo sapiens, UniProt P14416)	Intrinsic activity	13

# return Intrinsic activity for each item in the list
1. CN1C[C@@H](NC(=O)C(C)(C)C)CC2c3cccc4[nH]c(Cl)c(c34)C[C@H]21 (stereo partly drawn)
2. C=CCN1CC[C@H]2c3c(cccc3OC)CC[C@H]21 (racemic)
3. CCCN(CCC)[C@@H]1Cc2cccc3c2N(C1)C(=O)NC3 (racemic)
4. CCCN1CCC2Cc3c(O)cccc3CC21 (racemic)
5. CCCN(CCC)[C@@H]1Cc2cccc3c2N(CC(=O)N3)C1 (racemic)
6. CCCN1CCC2c3cccc(O)c3CCC21 (racemic; 15a)

[reply]
0
15
30
61
70
1
